All figures here come from patent US4861768A.

Recorded IC50 by entry
target: penicillinase (β-lactamase) from Bacillus SP; test: Test for β-lactamase inhibitory activity (microiodometry, penicillin G as substrate); settings: read-out: 50% Inhibitory Concentration
Answer with a number only, understood to be in nM.

Below: 5 molecules and their reported IC50.
Cn1nnnc1SCC1(C)C(C(=O)O)N2C(=O)CC2S1(=O)=O (stereo not drawn) = 870
CC1(CSc2nnnn2CCO)C(C(=O)O)N2C(=O)CC2S1(=O)=O (stereo not drawn) = 1820
CC1(CSC#N)C(C(=O)O)N2C(=O)CC2S1(=O)=O (stereo not drawn) = 9800
CC1(CSc2nnnn2-c2ccccc2)C(C(=O)O)N2C(=O)CC2S1(=O)=O (stereo not drawn) = 1000
COc1ccc(-n2nnnc2SCC2(C)C(C(=O)O)N3C(=O)CC3S2(=O)=O)cc1 (stereo not drawn) = 750

Proceeding to the next molecule to report its IC50.
Ask: Value wanted: IC50 (penicillinase (β-lactamase) from Bacillus SP) of entry CC1(CSc2nnnn2-c2ccc(Cl)cc2)C(C(=O)O)N2C(=O)CC2S1(=O)=O (stereo not drawn)
Reply: 480
